targetDesc: T1, cynomolgus monkey TIGIT ECD-hFc (extracellular domain of cynomolgus monkey TIGIT and human IgG1 Fc fragment) (cynomolgus monkey)
T1 construct: entry includes the signal peptide, limits not readable here; also called cynomolgus monkey TIGIT-hFc
assayProcedure: ELISA
The binders listed here are annotated with their pEC50.
// field semantics: pEC50 = negative decimal log of concentration (mol/L)

Recorded results for 3 binders are shown here.
binder	pEC50
TIGIT-F5-070 (antibody, V domains shown, mouse hybridoma antibody; variable domains as printed for TIGIT-CHI-070; tie rests on the number 070 only; also called mouse antibody TIGIT-070) VH: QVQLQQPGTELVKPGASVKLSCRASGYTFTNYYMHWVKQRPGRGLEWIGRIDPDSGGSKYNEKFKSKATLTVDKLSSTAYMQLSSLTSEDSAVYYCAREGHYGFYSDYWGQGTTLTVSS VL: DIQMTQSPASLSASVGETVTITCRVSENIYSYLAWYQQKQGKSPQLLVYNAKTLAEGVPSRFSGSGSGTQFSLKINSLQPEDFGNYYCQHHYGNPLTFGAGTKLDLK	11.37
TIGIT-F2-005 (antibody, V domains shown, mouse hybridoma antibody; variable domains as printed for TIGIT-CHI-005; tie rests on the number 005 only; also called mouse antibody TIGIT-005) VH: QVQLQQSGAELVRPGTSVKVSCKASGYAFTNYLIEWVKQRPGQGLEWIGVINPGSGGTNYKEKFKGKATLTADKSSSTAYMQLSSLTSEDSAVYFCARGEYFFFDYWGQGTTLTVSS VL: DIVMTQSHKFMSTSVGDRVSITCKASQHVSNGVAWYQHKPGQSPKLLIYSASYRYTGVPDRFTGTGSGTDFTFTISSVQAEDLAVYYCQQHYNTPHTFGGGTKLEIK	10.83
TIGIT-F2-002 (antibody, V domains shown, mouse hybridoma antibody; variable domains are those printed for the chimeric TIGIT-CHI-002 built from the mouse antibody; tie rests on the number 002 only; also called mouse antibody TIGIT-002) VH: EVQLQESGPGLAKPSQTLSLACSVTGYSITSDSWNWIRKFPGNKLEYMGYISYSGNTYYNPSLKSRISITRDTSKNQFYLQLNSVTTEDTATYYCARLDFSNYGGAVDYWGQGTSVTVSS VL: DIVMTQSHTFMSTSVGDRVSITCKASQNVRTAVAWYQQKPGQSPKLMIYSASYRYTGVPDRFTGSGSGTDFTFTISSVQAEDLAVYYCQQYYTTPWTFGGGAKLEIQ	10.77

API: the following record is the query input.
Tell me the measured pEC50 of TIGIT-F2-006 (antibody, V domains shown, mouse hybridoma antibody; variable domains as printed for TIGIT-CHI-006; tie rests on the number 006 only; also called mouse antibody TIGIT-006) VH: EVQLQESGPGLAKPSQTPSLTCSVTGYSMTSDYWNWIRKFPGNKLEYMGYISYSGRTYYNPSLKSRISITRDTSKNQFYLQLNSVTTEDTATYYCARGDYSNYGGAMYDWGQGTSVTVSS VL: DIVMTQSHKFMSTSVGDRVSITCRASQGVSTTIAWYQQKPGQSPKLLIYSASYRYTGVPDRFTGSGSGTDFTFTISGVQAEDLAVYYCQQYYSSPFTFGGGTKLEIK , please.
10.49
